- Tested on: 926638-142-R-J1-PDC complex spheroid viability;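 also: spheroids exposed to drugs for one week before readout; percent viability relative to DMSO vehicle control wells set as 100%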
- run description: Anticancer human tumor 926638-142-R-J1-PDC patient-derived endometrial carcinoma cell line growth inhibition [POLQ]
- protocol conditions: second compound 0.316 µM; first compound 1 µM; hits give low values
One threshold, 80%, splits the recorded viability, T/C values: lower ones are label 1, equal or higher ones are label 0.

Field: example entries. Status: answers known.
• O=C(c1cc(Cc2n[nH]c(=O)c3ccccc23)ccc1F)N1CCN(C(=O)C2CC2)CC1 + COC1C(OC(N)=O)C(O)C(Oc2ccc3c(O)c(NC(=O)c4ccc(O)c(CC=C(C)C)c4)c(=O)oc3c2C)OC1(C)C = label 0
• COc1ccc([C@@H](O)c2cc(-c3ncnc4cc(N5CCOCC5)ccc34)c(F)cc2Cl)nn1 + Nc1ccc(C#CCN(C(=O)Cc2ncc(C(F)(F)F)cc2C(F)(F)F)c2ccc(F)cc2)nn1 = label 1
• CNCc1ccc(-c2[nH]c3cc(F)cc4c3c2CCNC4=O)cc1 + Nc1ccc(C#CCN(C(=O)Cc2ncc(C(F)(F)F)cc2C(F)(F)F)c2ccc(F)cc2)nn1 = label 0
• COc1cccc2c1C(=O)c1c(O)c3c(c(O)c1C2=O)CC(O)(C(=O)CO)CC3OC1CC(N)C(O)C(C)O1 (stereo not given) + Cc1cccc(N(C)C(=O)C2C(O)CCN2c2nc(C)cc(C(F)(F)F)c2C#N)c1 = label 1

// next entry
Input O=C(Nc1ccc(O)c(NS(=O)(=O)c2ccc(F)cc2)c1)c1ccc(-c2ccccc2)cc1 + COC1C(OC(N)=O)C(O)C(Oc2ccc3c(O)c(NC(=O)c4ccc(O)c(CC=C(C)C)c4)c(=O)oc3c2C)OC1(C)C ; condition: viability, T/C strictly below 80%. Does it hold? label 0
